For each entry below, report its MIC value.
Tested on: Escherichia coli
PROTOCOL DESCRIPTION: Antimicrobial activity against Escherichia coli ATCC 25922 by Etest method
Assay type: functional
Respond numerically; units are µg/mL and should not be typed.

Data request, read-out MIC, for CO/N=C(\C(=O)N[C@@H]1C(=O)N2C(C(=O)O)=C(COC(C)=O)CS[C@H]12)c1csc(N)n1 0.03

Next record, please: CO/N=C(\C(=O)N[C@@H]1C(=O)N2C(C(=O)O)=C(CSC(=O)c3ccco3)CS[C@H]12)c1csc(N)n1 0.25

Here is the next compound: C=CC1=C(C(=O)O)N2C(=O)[C@@H](NC(=O)/C(=N\OCC(=O)O)c3csc(N)n3)[C@H]2SC1 0.125

Moving on to the next compound: CO[C@@]1(NC(=O)Cc2cccs2)C(=O)N2C(C(=O)O)=C(COC(N)=O)CS[C@@H]21 4

Could you do the same for CC1(C)S[C@@H]2[C@H](NC(=O)[C@H](N)c3ccccc3)C(=O)N2[C@H]1C(=O)O , please? 4

Next: COc1cc(Cc2cnc(N)nc2N)cc(OC)c1OC 0.5

Request: CN[C@@H]1[C@H](O[C@H]2[C@H](O[C@H]3[C@H](O)[C@@H](O)[C@H](N=C(N)N)[C@@H](O)[C@@H]3N=C(N)N)O[C@@H](C)[C@]2(O)C=O)O[C@@H](CO)[C@H](O)[C@H]1O 2

====

Tested on: Escherichia coli
PROTOCOL DESCRIPTION: Antimicrobial activity against Escherichia coli J5 transconjugants expressing beta lactamase CTX-M-9 isolated from human flora associated C3H rat infected with Salmonella enterica serotype Virchow and treated with Cefixime by Etest method
Type: functional
PARAMETER MEASURED: log10 MIC (log10 of the value in µg/mL)
Values below are the log10 of the recorded MIC, with µg/mL as the unit.

Name the recorded log10 MIC for CO[C@@]1(NC(=O)Cc2cccs2)C(=O)N2C(C(=O)O)=C(COC(N)=O)CS[C@@H]21 . 1.20

Now the same for CO/N=C(\C(=O)N[C@@H]1C(=O)N2C(C(=O)O)=C(COC(C)=O)CS[C@H]12)c1csc(N)n1 -0.30

Request: CO/N=C(\C(=O)N[C@@H]1C(=O)N2C(C(=O)O)=C(CSC(=O)c3ccco3)CS[C@H]12)c1csc(N)n1 0.00

Next molecule up: CC1(C)S[C@@H]2[C@H](NC(=O)[C@H](N)c3ccccc3)C(=O)N2[C@H]1C(=O)O 1.20

Param item: C=CC1=C(C(=O)O)N2C(=O)[C@@H](NC(=O)/C(=N\OCC(=O)O)c3csc(N)n3)[C@H]2SC1 0.90

And what about the molecule COc1cc(Cc2cnc(N)nc2N)cc(OC)c1OC ? -0.30

Lookup CCn1cc(C(=O)O)c(=O)c2ccc(C)nc21 0.60

====

Provide the reported MIC of each item.
Tested on: Escherichia coli
PROTOCOL DESCRIPTION: Antimicrobial activity against Escherichia coli J5 transconjugants expressing beta lactamase CTX-M-9 isolated from human flora associated C3H rat infected with Salmonella enterica serotype Virchow and treated with Cefixime by Etest method
Type: functional
Just the number please, in µg/mL, no unit attached.

Tell me the measured MIC of CC(C)(O/N=C(\C(=O)N[C@@H]1C(=O)N2C(C(=O)[O-])=C(C[n+]3ccccc3)CS[C@H]12)c1csc(N)n1)C(=O)O , please. 1

Next record, please: CO/N=C(\C(=O)N[C@@H]1C(=O)N2C(C(=O)O)=C(COC(N)=O)CS[C@H]12)c1ccco1 8

Also need Cc1cc(NS(=O)(=O)c2ccc(N)cc2)no1 , thanks. 4

Also check CN(C)[C@@H]1C(O)=C(C(N)=O)C(=O)[C@@]2(O)C(O)=C3C(=O)c4c(O)cccc4[C@@](C)(O)[C@H]3C[C@@H]12 2

And for CN[C@@H]1[C@H](O[C@H]2[C@H](O[C@H]3[C@H](O)[C@@H](O)[C@H](N=C(N)N)[C@@H](O)[C@@H]3N=C(N)N)O[C@@H](C)[C@]2(O)C=O)O[C@@H](CO)[C@H](O)[C@H]1O ? 2

====

Consider the following molecules; for each one, report its log10(MIC).
Tested on: Salmonella enterica
PROTOCOL DESCRIPTION: Antimicrobial activity against Salmonella enterica serotype Virchow 3464b by Etest method
Type: functional
Friendly reminder: values = log10 of MIC, unit µg/mL.

Field request: log10(MIC) | item: CN[C@@H]1[C@H](O[C@H]2[C@H](O[C@H]3[C@H](O)[C@@H](O)[C@H](N=C(N)N)[C@@H](O)[C@@H]3N=C(N)N)O[C@@H](C)[C@]2(O)C=O)O[C@@H](CO)[C@H](O)[C@H]1O 2.11

Then C=CC1=C(C(=O)O)N2C(=O)[C@@H](NC(=O)/C(=N\OCC(=O)O)c3csc(N)n3)[C@H]2SC1 ? 0.90

And what about the molecule CO[C@@]1(NC(=O)Cc2cccs2)C(=O)N2C(C(=O)O)=C(COC(N)=O)CS[C@@H]21 ? 1.20

Please give the result for CC1(C)S[C@@H]2[C@H](NC(=O)[C@H](N)c3ccccc3)C(=O)N2[C@H]1C(=O)O too. 2.11

One more molecule: CCn1cc(C(=O)O)c(=O)c2ccc(C)nc21 2.41

Try CN(C)[C@@H]1C(O)=C(C(N)=O)C(=O)[C@@]2(O)C(O)=C3C(=O)c4c(O)cccc4[C@@](C)(O)[C@H]3C[C@@H]12 next. 1.81

Lookup CO[C@H]1/C=C/O[C@@]2(C)Oc3c(C)c(O)c4c(O)c(c(/C=N/N5CCN(C)CC5)c(O)c4c3C2=O)NC(=O)/C(C)=C\C=C\[C@H](C)[C@H](O)[C@@H](C)[C@@H](O)[C@@H](C)[C@H](OC(C)=O)[C@@H]1C 0.60

Cool, now CC(C)(O/N=C(\C(=O)N[C@@H]1C(=O)N2C(C(=O)[O-])=C(C[n+]3ccccc3)CS[C@H]12)c1csc(N)n1)C(=O)O 0.90

====

Tested on: Salmonella enterica
PROTOCOL DESCRIPTION: Antimicrobial activity against Salmonella enterica serotype Virchow 3464b by Etest method
Assay type: functional
Provide the reported MIC of each item.

Look at this compound and give its reported MIC. COc1cc(Cc2cnc(N)nc2N)cc(OC)c1OC > 64 µg/mL

CO/N=C(\C(=O)N[C@@H]1C(=O)N2C(C(=O)O)=C(CSC(=O)c3ccco3)CS[C@H]12)c1csc(N)n1 ? > 8 µg/mL

Next record, please: Cc1cc(NS(=O)(=O)c2ccc(N)cc2)no1 > 512 µg/mL

// repeat for CO/N=C(\C(=O)N[C@@H]1C(=O)N2C(C(=O)O)=C(COC(N)=O)CS[C@H]12)c1ccco1 and report > 32 µg/mL

Quick one: CO/N=C(\C(=O)N[C@@H]1C(=O)N2C(C(=O)O)=C(COC(C)=O)CS[C@H]12)c1csc(N)n1 > 8 µg/mL
